biological target: m2 muscarinic receptor (Homo sapiens); construct: expressed in transfected cells; host or cells: NIH 3T3 (mouse fibroblasts); test: cell-based; type: cell-based; settings: m2 + Gq-i5, Table 1A; read-out: EC50
PARAMETER_MEASURED: EC50 (nM)
# number only, unit nM dropped from output

QUERY: I have this compound here, "C[N+](C)(C)CC#CCOC(=O)Nc1cccc(Cl)c1" , and I need its recorded EC50.
RESULT: 1500

* * *

target: m2 muscarinic receptor (Homo sapiens, UniProt P08172); construct: expressed in transfected cells; host or cells: NIH 3T3 (mouse fibroblasts); assay: cell-based; assay type: cell-based; conditions: read-out: EC50
Sequence (P08172 whole entry): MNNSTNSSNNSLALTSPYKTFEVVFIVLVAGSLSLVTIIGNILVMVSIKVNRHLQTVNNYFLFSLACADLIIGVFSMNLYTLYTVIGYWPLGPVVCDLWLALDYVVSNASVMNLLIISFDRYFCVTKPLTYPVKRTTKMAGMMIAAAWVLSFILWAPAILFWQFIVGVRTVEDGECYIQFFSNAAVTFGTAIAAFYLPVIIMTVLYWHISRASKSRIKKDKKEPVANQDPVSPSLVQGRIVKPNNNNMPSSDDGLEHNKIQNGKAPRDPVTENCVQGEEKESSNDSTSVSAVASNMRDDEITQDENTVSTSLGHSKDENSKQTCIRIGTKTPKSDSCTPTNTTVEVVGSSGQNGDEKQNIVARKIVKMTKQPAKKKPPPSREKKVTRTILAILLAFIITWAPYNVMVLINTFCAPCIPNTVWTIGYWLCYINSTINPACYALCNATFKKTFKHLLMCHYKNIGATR
PARAMETER_MEASURED: EC50 (nM)
# number only, unit nM dropped from output

QUERY: // fetch m2 muscarinic receptor (Homo sapiens, UniProt P08172) EC50 for O=C1CCCN1CC#CCN1CCCC1 [oxotremorine]
RESULT: 19

Reference for the values: patent US5707798A
